# assayedSystem: Recombinant human DGAT2 protein (Homo sapiens, UniProt Q96PD7)
# Construct: FLAG (DYKDDDDK); (N); used as a membrane preparation
# Sequence (Q96PD7 1-388): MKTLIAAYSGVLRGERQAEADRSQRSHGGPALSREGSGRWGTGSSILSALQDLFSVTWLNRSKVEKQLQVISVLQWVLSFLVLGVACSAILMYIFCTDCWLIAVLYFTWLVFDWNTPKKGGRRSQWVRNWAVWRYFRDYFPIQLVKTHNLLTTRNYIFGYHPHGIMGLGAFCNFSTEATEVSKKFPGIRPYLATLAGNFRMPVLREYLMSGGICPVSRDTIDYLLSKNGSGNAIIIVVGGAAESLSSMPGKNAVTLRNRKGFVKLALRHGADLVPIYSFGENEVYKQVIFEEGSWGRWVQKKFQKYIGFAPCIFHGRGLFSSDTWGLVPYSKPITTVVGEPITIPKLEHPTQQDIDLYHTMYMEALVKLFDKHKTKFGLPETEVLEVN
# experimentalDetails: Measurement of inhibitory effect against DGAT2 enzyme activity (SPA, Phospholipid FlashPlate, [14C]-TG production)
# particulars: concentration inhibiting [14C]-labeled triacyl glycerol (TG) production by 50%; 2 μg DGAT2-membrane protein from Sf-21 cells, 37° C.
pIC50: −log10 of the molar value.
Quick rule: pIC50 of at least 6 means Satisfied, below that means Not satisfied.

Recorded results for 3 molecules are shown here.
| molecule | labelClass |
| --- | --- |
| CCOc1ccccc1O[C@@H]1CCCN(c2cncc(NC(=O)CCc3ccc(C(C)(C)C(=O)O)cc3)n2)C1 | Satisfied |
| CCOc1ccccc1O[C@@H]1CCCN(c2cncc(NC(=O)Cc3ccc(O[C@H](C)C(=O)O)cc3)n2)C1 | Satisfied |
| CC(C)(Cc1ccc(CC(=O)Nc2cncc(N3CCC[C@@H](Oc4ccccc4OC4CC4)C3)n2)cc1)C(=O)O | Satisfied |

[Q] Given CCOc1ccccc1O[C@@H]1CCCN(c2cncc(NC(=O)C3(C)CCN(c4ccc(C(=O)O)cn4)C3)n2)C1 (some centres unmarked) , state whether its pIC50 is at least 6.
[A] Satisfied

[Q] Cool, now `CCOc1ccccc1O[C@@H]1CCCN(c2cncc(N3C(=O)CC(C)(C)C3=O)n2)C1`
[A] Not satisfied

[Q] Cool, now `CCOc1ccccc1O[C@@H]1CCCN(c2cncc(NC(=O)C(C)(C)c3ccccc3)n2)C1`
[A] Satisfied

[Q] Cool, now `CCOc1ccccc1O[C@@H]1CCCN(c2cncc(NC(=O)CCc3ccc(C(=O)O)c(C)c3)n2)C1`
[A] Satisfied

[Q] Cool, now `CCOc1ccccc1O[C@@H]1CCCN(c2cncc(NC(=O)c3ccccc3)n2)C1`
[A] Satisfied

* * *

# assayedSystem: Recombinant human DGAT2 protein (Homo sapiens, UniProt Q96PD7)
# Construct: FLAG (DYKDDDDK); (N); used as a membrane preparation
# experimentalDetails: Measurement of inhibitory effect against DGAT2 enzyme activity (SPA, Phospholipid FlashPlate, [14C]-TG production)
# particulars: concentration inhibiting [14C]-labeled triacyl glycerol (TG) production by 50%; 2 μg DGAT2-membrane protein from Sf-21 cells, 37° C.
For each of the compounds below, state its pIC50.
Answers are plain numbers, as −log10 of the molar value.

Solved cases below.
| smilesRepresentation | valueType | obsValue |
| --- | --- | --- |
| CCOc1ccccc1O[C@@H]1CCCN(c2cncc(NC(=O)N3CCOCC3)n2)C1 | pIC50 | 5.64 |
| CCOc1ccccc1O[C@@H]1CCCN(c2cncc(NC(=O)CCC34CCC(C(=O)O)(CC3)CC4)n2)C1 | pIC50 | 6.85 |
| CCOc1ccccc1O[C@@H]1CCCN(c2cncc(NC(=O)CCc3ccccc3)n2)C1 | pIC50 | 7.74 |

Could you now look at the following compound, please?
[Q] Entry under review: `CCOc1ccccc1O[C@@H]1CCCN(c2cncc(NC(=O)CCc3ccc(CC(=O)O)cc3)n2)C1` . Reported pIC50?
[A] 7.00

* * *

# assayedSystem: Recombinant human DGAT2 protein (Homo sapiens)
# Construct: FLAG (DYKDDDDK); (N); used as a membrane preparation
# Sequence (Q96PD7 1-388): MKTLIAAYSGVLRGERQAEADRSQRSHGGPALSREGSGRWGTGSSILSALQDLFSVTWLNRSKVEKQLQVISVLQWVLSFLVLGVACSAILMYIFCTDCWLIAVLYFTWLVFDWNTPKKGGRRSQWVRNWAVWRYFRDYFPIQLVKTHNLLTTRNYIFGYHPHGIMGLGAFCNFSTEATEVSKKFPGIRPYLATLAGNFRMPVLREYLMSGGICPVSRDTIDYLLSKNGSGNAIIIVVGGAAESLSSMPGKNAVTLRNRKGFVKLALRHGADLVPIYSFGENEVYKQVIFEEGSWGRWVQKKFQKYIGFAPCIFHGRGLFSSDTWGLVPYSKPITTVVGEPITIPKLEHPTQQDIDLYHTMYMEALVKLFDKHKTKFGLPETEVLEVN
# experimentalDetails: Measurement of inhibitory effect against DGAT2 enzyme activity (SPA, Phospholipid FlashPlate, [14C]-TG production)
# particulars: concentration inhibiting [14C]-labeled triacyl glycerol (TG) production by 50%; 2 μg DGAT2-membrane protein from Sf-21 cells, 37° C.
valueType: log10 of IC50 (log10 of the value in nM)
Short version: log10 scale, IC50, nM.

Solved cases below.
| compound | obsValue |
| --- | --- |
| CCOc1ccccc1O[C@@H]1CCCN(c2nccc(NC(=O)CCc3ccc(OC(C)(C)C(=O)O)cc3)n2)C1 [Example 109] | 3.04 |
| CCOc1cccnc1O[C@@H]1CCCN(c2cncc(NC(=O)C(C)(C)c3ccc(CC(C)(C)C(=O)O)cc3)n2)C1 [Example 125] | 1.54 |
| CCOc1ccccc1O[C@@H]1CCCN(c2nccc(NC(=O)CCc3ccc(C(C)(C)C(=O)O)cc3)n2)C1 [Example 122] | 1.78 |

For each of the compounds below, note its log10 of IC50.
1. CCOc1ccccc1O[C@@H]1CCCN(c2cncc(NC(=O)c3ccc([N+](=O)[O-])cc3)n2)C1 [Example 10]
2. CCOc1ccccc1O[C@@H]1CCCN(c2cncc(NC(=O)C3CCN(c4ccc(C(C)(C)C(=O)O)cn4)CC3)n2)C1 [Example 81]
3. CCOc1ccccc1O[C@@H]1CCCN(c2cncc(NC(=O)Cc3ccc(O)cc3)n2)C1 [Example 36]

[A]
1. 1.28
2. 2.87
3. 1.08

[Q] Entry under review: CCOc1ccccc1O[C@@H]1CCCN(c2cncc(NC(=O)/C(C)=C/c3ccc(C(=O)O)cc3)n2)C1 [Example 42] . Reported log10 of IC50?
[A] 3.11

* * *

# assayedSystem: Recombinant human DGAT2 protein (Homo sapiens)
# Construct: FLAG (DYKDDDDK); (N); used as a membrane preparation
# experimentalDetails: Measurement of inhibitory effect against DGAT2 enzyme activity (SPA, Phospholipid FlashPlate, [14C]-TG production)
# particulars: concentration inhibiting [14C]-labeled triacyl glycerol (TG) production by 50%; 2 μg DGAT2-membrane protein from Sf-21 cells, 37° C.
valueType: IC50 (nM)
Numbers only, in nM.

Solved cases below.
| smilesRepresentation | readoutUnits | IC50 |
| --- | --- | --- |
| CCOc1ccccc1O[C@@H]1CCCN(c2cncc(NC(=O)C3CCN(c4nnn(CC(=O)O)n4)CC3)n2)C1 | nM | 6800 |
| CCOc1ccccc1O[C@@H]1CCCN(c2cncc(NC(=O)CCc3cccc(CC(C)(C)C(=O)O)c3)n2)C1 | nM | 83 |
| CCOc1ccccc1O[C@@H]1CCCN(c2cncc(NC(=O)C(C)(C)Cc3ccc(C(C)(C)C(=O)O)cc3)n2)C1 | nM | 690 |

Could you now look at the following molecule, please?
[Q] Entry under review: `CCOc1cccnc1O[C@@H]1CCCN(c2cncc(NC(=O)[C@@H]3CCCN(c4cccc(CC(C)(C)C(=O)O)c4)C3)n2)C1` . Reported IC50?
[A] 130

* * *

# assayedSystem: Recombinant human DGAT2 protein (Homo sapiens, UniProt Q96PD7)
# Construct: FLAG (DYKDDDDK); (N); used as a membrane preparation
# experimentalDetails: Measurement of inhibitory effect against DGAT2 enzyme activity (SPA, Phospholipid FlashPlate, [14C]-TG production)
# particulars: concentration inhibiting [14C]-labeled triacyl glycerol (TG) production by 50%; 2 μg DGAT2-membrane protein from Sf-21 cells, 37° C.
pIC50: −log10 of the molar value.
Quick rule: pIC50 of at least 6 means criterion met, below that means criterion not met.

Recorded results for 5 molecules are shown here.
| smilesRepresentation | assayedSystem | labelClass |
| --- | --- | --- |
| CCOc1ccccc1O[C@@H]1CCCN(c2cncc(NC(=O)C34CCC(C(=O)O)(CC3)CC4)n2)C1 | Recombinant human DGAT2 protein (Homo sapiens, UniProt Q96PD7) | criterion not met |
| CCOc1cccnc1O[C@@H]1CCCN(c2cncc(NC(=O)Cc3ccc(OC(C)(C)C(=O)O)cc3)n2)C1 | Recombinant human DGAT2 protein (Homo sapiens, UniProt Q96PD7) | criterion met |
| CCOc1ccccc1O[C@@H]1CCCN(c2cncc(NC(=O)Cc3ccc(OC(C)(C)C(=O)O)cc3)n2)C1 | Recombinant human DGAT2 protein (Homo sapiens, UniProt Q96PD7) | criterion met |
| COc1ccccc1O[C@@H]1CCCN(c2cncc(NC(=O)CCc3ccc(C(C)(C)C(=O)O)cc3)n2)C1 | Recombinant human DGAT2 protein (Homo sapiens, UniProt Q96PD7) | criterion met |
| CCOc1ccccc1O[C@@H]1CCCN(c2cncc(NC(=O)c3ccc(Cl)cc3)n2)C1 | Recombinant human DGAT2 protein (Homo sapiens, UniProt Q96PD7) | criterion met |

Then there is this molecule:
[Q] Given `CCOc1ccccc1O[C@@H]1CCCN(c2cncc(NC(=O)/C=C/c3ccc(C(=O)O)cc3)n2)C1` , state whether its pIC50 is at least 6.
[A] criterion not met

Reference for the values: patent US12637440B2
